B1: F1*; the commonest letter at each place (parent)
chain: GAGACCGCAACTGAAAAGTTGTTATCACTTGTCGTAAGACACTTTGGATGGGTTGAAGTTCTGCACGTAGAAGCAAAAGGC

- Variants of: B1
- Assay Protocol: fraction ligated after 30 min (ligated reads / total reads); higher = more ligase activity
- Setup Conditions: with F1*sub RNA substrate (template-directed ligation), 42 °C
Could you label it TRUE if measured fraction ligated is 0.8 or higher, and FALSE otherwise?

- Variant Spec: "A37G G47T"
  Class Name: "FALSE"
- Variant Spec: "T25C G47A"
  Class Name: "FALSE"
- Variant Spec: "C42G"
  Class Name: "TRUE"
- Variant Spec: "A27T T44C"
  Class Name: "FALSE"

Query block: Decide: is the reported value of fraction ligated for T30G C33A equal to or greater than 0.8?
Result block: TRUE

These entries and their values trace back to the supplement of paper PMC6755084.
